// data source = PubChem BioAssay (NCI)

Test: NCI Yeast Anticancer Drug Screen. Data for the cln2 rad14 strain (AID 165);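 also: 0% = growth equal to vehicle treated cultures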
Conditions: S. cerevisiae cln2 rad14 strain, at 5.0 µM (retest, dose inferred, filed as 0.5)
This is part of a sample that, as a whole, favours compounds with a hit. Of some 79,000 tested, about 15% had one in any assay. Activity calls are given as the source filed them. Rule as the data show it: active = growth inhibition above about 70%; inactive = the rest.
Possible outcomes: active, inactive

| Compound | Classification |
| --- | --- |
| CCOc1nc(OCC)nc(-c2cccn2-c2ccccc2)n1 | inactive |
| CN1CCN(c2ccc3nc(-c4ccc5nc(-c6ccc(O)cc6)[nH]c5c4)[nH]c3c2)CC1 | inactive |
| CC1=Cc2ccc(C)cc2C(=O)C1=O | inactive |
| C=Cc1c(C)c(O)cc2c1-c1ccc(O)c(C)c1CC2 | inactive |
| Cc1nc2ccc(NCCN(C)C)c3c(=O)c4ccccc4n1c23 | inactive |
| C[n+]1c(-c2ccc(NC(=O)c3ccc(C(=O)Nc4ccc(-c5cn6ccccc6[n+]5C)cc4)cc3)cc2)cn2ccccc21 | inactive |
| O=S(=O)(CCC[C@H]1[C@@H](CCOCc2ccccc2)C2CCCN1O2)c1ccccc1 (some centres not stated) | inactive |
| Cc1cc(N(CCOS(C)(=O)=O)CCOS(C)(=O)=O)ccc1C=O | inactive |
| O=C(CCC(=O)c1ccc(O)cc1)Oc1ccc(O)cc1 | inactive |
| Cc1ccc(S(=O)(=O)N/N=C/c2c(O)ccc3ccccc23)cc1 | inactive |
| CC(C)c1ccc(C2NC(=S)NC3=C2c2ccccc2C3=O)cc1 (configuration not stated) | inactive |
| COc1ccc(/C=C2\CCc3ccccc3C2=O)cc1OC | inactive |
| O=S(=O)(O)c1ccc2c(N=Nc3c(O)ccc4ccccc34)cccc2c1 | inactive |
| CCCCCCCCCCCCOC1C(COCCN2CCCC2)OC2OC(C)(C)OC21 (configuration not stated) | inactive |
| NCC(O)CSCc1ccc(Cl)cc1 (configuration not stated) | inactive |
| O=C(O)[C@H]1[C@@H](C2CCCCC2)O[C@@H](C2CCCCC2)O[C@H]1C(F)(F)F | inactive |
| [O-]c1c2cc(-[n+]3c(-c4ccccc4)cc(-c4ccccc4)cc3-c3ccccc3)cc1COCCOCCOCCOCCOC2 | inactive |
| Cc1nc2ccccc2c(=O)n1NC(=O)c1ccc(CS)cc1 | inactive |
| CCCCOc1ccc(Nc2c3ccccc3nc3ccccc23)cc1 | inactive |
| CC(=O)O/N=C/c1c2ccccc2cc2ccccc12 | inactive |
| Nc1nc(Nc2ccccc2)nc(Nc2ccccc2)n1 | inactive |
| O=[N+]([O-])c1cccc2nc3ccccc3c(NCCC[N+]3([O-])CCOCC3)c12 | active |

###

Each entry below lists one item and its recorded growth inhibition value.
Assay: NCI Yeast Anticancer Drug Screen. Data for the rad52 strain (AID 147);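 also: 0% = growth of vehicle-treated control cultures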
Settings: S. cerevisiae rad52 mutant growth inhibition; at 33.0 µM; active compounds read high
Compounds without any hit were thinned out: in the full panel of roughly 79,000, 15% have a hit.

| Molecule | Units text | growth inhibition |
| --- | --- | --- |
| Cc1ccc2nc(N/N=C/c3ccc(C)s3)cc(C)c2c1 | % | 98 |
| BrC/C=C/C[P+](c1ccccc1)(c1ccccc1)c1ccccc1 | % | 98 |
| OC(c1ccc(Br)cc1)(c1cccs1)C1CC1 (stereo unspecified) | % | 92 |
| O=C(N/N=C/c1ccc2c(c1)CCC2)c1ccccc1[N+](=O)[O-] | % | -1 |
| Cc1cc(NCCCN(C)C)c2ccc3c(ccc4c(NCCCN(C)C)cc(C)nc43)c2n1 | % | 19 |
| CN1CCN(c2ccc3nc(-c4ccc5nc(-c6ccc(O)cc6)[nH]c5c4)[nH]c3c2)CC1 | % | 38 |
| O=C1C=CC(=O)N1c1ccc(Br)cc1Cl | % | 99 |
| COc1cc(C(C)(C)C)cc(OC)c1C(O)(c1c(OC)cc(C(C)(C)C)cc1OC)c1c(OC)cc(C(C)(C)C)cc1OC | % | 92 |
| Cc1ccc(P(c2ccc(C)cc2)c2ccc(C)cc2)cc1 | % | 11 |
| Clc1ccc(C(c2ccc(Cl)cc2)N2CCNCC2)cc1 | % | 46 |
| CN(C)/N=N/c1nc[nH]c1C(N)=O | % | 31 |
